- study-target: T1, Human CD3eg linker (human)
- T1 construct: single-chain construct; also called recombinant human CD3
- T1 chain: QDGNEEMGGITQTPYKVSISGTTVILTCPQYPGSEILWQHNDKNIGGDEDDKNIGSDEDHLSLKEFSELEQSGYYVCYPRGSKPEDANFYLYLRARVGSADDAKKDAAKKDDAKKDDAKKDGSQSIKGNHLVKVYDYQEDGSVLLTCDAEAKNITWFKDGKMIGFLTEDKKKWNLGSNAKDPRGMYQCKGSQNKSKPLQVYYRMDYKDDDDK
- test-description: SPR, vs unmutated H183/L072
quantity-kind: fold change of affinity (fold)

binder="dBBDu183H A100fN/dBBDu072L (antibody, name in Kabat numbering, V domains shown) VH: QVQLVESGGGLVQPGRSLRLSCAASGFTFSNAWMHWVRQAPGKGLEWVAQIKDKGNAYAAYYAPSVKGRFTISRDDSKNSIYLQMNSLKTEDTAVYYCHYVHYASASTVLPNFGVDAWGQGTTVTVSS VL: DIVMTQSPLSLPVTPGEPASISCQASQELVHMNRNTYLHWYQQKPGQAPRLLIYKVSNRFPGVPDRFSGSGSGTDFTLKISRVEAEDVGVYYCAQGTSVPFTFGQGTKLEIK" observed_measurement=1.3
binder="dBBDu183H P100eQ/dBBDu072L (antibody, name in Kabat numbering, V domains shown) VH: QVQLVESGGGLVQPGRSLRLSCAASGFTFSNAWMHWVRQAPGKGLEWVAQIKDKGNAYAAYYAPSVKGRFTISRDDSKNSIYLQMNSLKTEDTAVYYCHYVHYASASTVLQAFGVDAWGQGTTVTVSS VL: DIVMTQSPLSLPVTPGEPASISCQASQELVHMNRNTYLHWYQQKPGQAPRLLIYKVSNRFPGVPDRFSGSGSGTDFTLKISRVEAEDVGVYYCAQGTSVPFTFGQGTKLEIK" observed_measurement=1.5
binder="dBBDu183H A98W/dBBDu072L (antibody, name in Kabat numbering, V domains shown) VH: QVQLVESGGGLVQPGRSLRLSCAASGFTFSNAWMHWVRQAPGKGLEWVAQIKDKGNAYAAYYAPSVKGRFTISRDDSKNSIYLQMNSLKTEDTAVYYCHYVHYWSASTVLPAFGVDAWGQGTTVTVSS VL: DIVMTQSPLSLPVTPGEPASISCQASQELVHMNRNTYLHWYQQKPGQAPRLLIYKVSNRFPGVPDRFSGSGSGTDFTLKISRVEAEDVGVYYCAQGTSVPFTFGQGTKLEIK" observed_measurement=7
